Where do these numbers come from? They come from ChEMBL document CHEMBL1862790.

assay: DNDI: Cytotoxicity against L-6 rat myoblasts from skeletal muscle cells; settings: L6 rat skeletal muscle myoblast cells
pIC50: −log10 of the molar value.
Give measured pIC50 for each item. Keep answers brief.

CC(Oc1ccc(Oc2nc3ccc(Cl)cc3o2)cc1)C(=O)O (stereo unspecified) = < 4.00
OC(c1ccc(Cl)cc1)(c1cccnc1)c1c(F)cccc1Cl (stereo unspecified) = 4.17

Report pIC50 for each item below.
1. OC(c1ccc(Cl)cc1)(c1cccnc1)c1c(F)cccc1F (stereo unspecified)
2. Cc1ccc(-c2c(Cl)nc(C#N)n2S(=O)(=O)N(C)C)cc1
3. O=C(Oc1ccccc1)N1CCC(NC(c2ccc(Cl)cc2)c2cccnc2)CC1 (stereo unspecified)

Ans.
1: < 4.00; 2: 4.13; 3: 4.22

Report pIC50 for each item below.
1. CON(C)C(=O)Nc1ccc(Br)cc1
2. OC(c1ccc(C(F)(F)F)cc1)(c1cccnc1)c1ccc(Cl)cc1F (stereo unspecified)

Ans.
["< 4.00", "< 4.00"]

Report pIC50 for each item below.
1. OC(c1ccc(Cl)cc1)(c1cccnc1)c1ccccc1F (stereo unspecified)
2. CC1=C(C(=O)Nc2ccccc2)S(=O)(=O)CCO1
3. OC(c1ccc(Cl)cc1)(c1cccnc1)c1ccc(Cl)cc1F (stereo unspecified)
4. OC(c1ccc(Cl)cc1)(c1cccnc1)c1ccccc1Cl (stereo unspecified)

Ans.
1. < 4.00
2. < 4.00
3. < 4.00
4. 4.22
